Origin of the recorded values: patent US20250312499A1

Biological target: UniProt Q969F8
Assay: Human KISS1R binding assay (membrane competition binding)
Details: 90 min at room temperature; competition with 0.2 nM [125I]-metastin (45-54); Flp-In T-Rex 293 kisspeptin membranes; metal complexes nonradioactive Ga, In, Lu; read-out: hKiSSR Binding Ki (90 min)
Procedure: Crude membrane fractions are prepared from Flp-In T-Rex 293 (Thermo Fisher) cell line expressing the human kisspeptin receptor. The cells are grown to 85-100% confluence on standard tissue culture dishes in Dulbecco's Modified Eagles Medium (DMEM) (Corning) supplemented with 10% FBS (Gemini), 1% penicillin-streptomycin-glutamine (Gibco), 500 μg/mL hygromycin, and 15 μg/mL blastacidin. […]
pKi: −log10 of the molar value. Square brackets hold non-standard residues; d marks the D form. Peptide text beside a SMILES is read from it. * marks the point of attachment. DOTA = O=C(O)CN1CCN(CC(=O)O)CCN(CC(=O)*)CCN(CC(=O)O)CC1; Gly(N-(3-F-4-Me-benzyl)) = Cc1ccc(CNCC(=O)*)cc1F; Api(1-amidino) = N=C(N)N1CCC(N)(C(=O)O)CC1; Hydrocinnamoyl(4-I) = O=C(CCc1ccc(I)cc1)*; d2Nal = N[C@H](Cc1ccc2ccccc2c1)C(=O)O; Trx = NC[C@H]1CC[C@H](C(=O)O)CC1; 4Amb = NCc1ccc(C(=O)O)cc1; Api = NC1(C(=O)O)CCNCC1; PEG2 = NCCOCCOCCC(=O)O; azaGly = NNC(=O)O
OUTCOME_MEASURE: pKi

Known pKi results, listed for orientation:
Record CC(C)C[C@H](NC(=O)NNC(=O)[C@H](Cc1ccccc1)NC(=O)[C@@H](NC(=O)[C@H](CC(N)=O)NC(=O)[C@@H](Cc1ccc2ccccc2c1)NC(=O)[C@@H](Cc1ccc(O)cc1)NC(=O)CCOCCOCCNC(=O)CCc1ccc(I)cc1)[C@@H](C)O)C(=O)NC1(C(=O)N[C@@H](Cc2c[nH]c3ccccc23)C(N)=O)CCN(C(=N)N)CC1 [Compound 394] ({Hydrocinnamoyl(4-I)-PEG2}-[dY][d2Nal]NTF[azaGly]L[Api(1-amidino)]W-NH2) / UniProt Q969F8, pKi recorded as > 8.00

Record CC(=O)N[C@H](Cc1ccc(O)cc1)C(=O)N[C@@H](CCCCNC(=O)CN1CCN(CC(=O)O)CCN(CC(=O)O)CCN(CC(=O)O)CC1)C(=O)N[C@@H](CC(N)=O)C(=O)N[C@H](C(=O)N[C@@H](Cc1ccccc1)C(=O)NNC(=O)N[C@@H](CC(C)C)C(=O)NC1(C(=O)N[C@@H](Cc2c[nH]c3ccccc23)C(N)=O)CCN(C(=O)CNCc2ccc(C)c(F)c2)CC1)[C@@H](C)O [Compound 380] (Ac-[dY]K(DOTA)NTF[azaGly]L[Api](Gly(N-(3-F-4-Me-benzyl)))W-NH2) / UniProt Q969F8, pKi recorded as > 8.00

We now examine a further molecule.
Record Cc1ccc(CNCC(=O)N2CCC(NC(=O)[C@H](CC(C)C)NC(=O)NNC(=O)[C@H](Cc3ccccc3)NC(=O)[C@H]3CC[C@H](CNC(=O)c4ccc(CNC(=O)CN5CCN(CC(=O)O)CCN(CC(=O)O)CCN(CC(=O)O)CC5)cc4)CC3)(C(=O)N[C@@H](Cc3c[nH]c4ccccc34)C(N)=O)CC2)cc1F [Compound 110] ({DOTA-4Amb-Trx}-F[azaGly]L[Api](Gly(N-(3-F-4-Me-benzyl)))W-NH2) / UniProt Q969F8, pKi recorded as > 8.00

* * *

target: human kisspeptin receptor (Homo sapiens (Human), UniProt Q969F8); assay: Human KISS1R binding assay (membrane competition binding); details: 90 min at room temperature; competition with 0.2 nM [125I]-metastin (45-54); Flp-In T-Rex 293 kisspeptin membranes; metal complexes nonradioactive Ga, In, Lu; read-out: hKiSSR Binding Ki (90 min)
Sequence (Q969F8 whole entry): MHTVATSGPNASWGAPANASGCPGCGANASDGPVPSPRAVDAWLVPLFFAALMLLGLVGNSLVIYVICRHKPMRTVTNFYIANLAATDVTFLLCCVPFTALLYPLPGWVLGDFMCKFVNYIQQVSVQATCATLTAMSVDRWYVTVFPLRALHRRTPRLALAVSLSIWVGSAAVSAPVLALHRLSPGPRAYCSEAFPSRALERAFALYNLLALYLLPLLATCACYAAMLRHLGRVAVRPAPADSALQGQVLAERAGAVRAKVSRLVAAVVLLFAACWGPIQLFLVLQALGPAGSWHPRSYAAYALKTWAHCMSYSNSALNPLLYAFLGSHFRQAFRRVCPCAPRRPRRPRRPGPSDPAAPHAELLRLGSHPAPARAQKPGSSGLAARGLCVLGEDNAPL
Numbered stars: 1 amine (or outer) side, 2 acyl side, 3 side chain; on linkers, the order of the positions; unused ones are H or OH. Square brackets hold non-standard residues; d marks the D form. Peptide text beside a SMILES is read from it. * marks the point of attachment. DOTA = O=C(O)CN1CCN(CC(=O)O)CCN(CC(=O)*)CCN(CC(=O)O)CC1; Gly(N-(3-F-4-Me-benzyl)) = Cc1ccc(CNCC(=O)*)cc1F; Gly(Nα-4-MeO-benzyl) = COc1ccc(CNCC(=O)*)cc1; X1 = O=C(CN1CCC(N[*:1])CC1)[*:2]; 4Pal = N[C@@H](Cc1ccncc1)C(=O)O; Api = NC1(C(=O)O)CCNCC1; Ahx = NCCCCCC(=O)O; azaGly = NNC(=O)O
Collected Ki values appear next to each entry.

Record COc1ccc(CNCC(=O)N2CCC(NC(=O)[C@H](CC(C)C)NC(=O)NNC(=O)[C@H](Cc3ccccc3)NC(=O)[C@@H](NC(=O)[C@H](CC(N)=O)NC(=O)[C@@H](Cc3c[nH]c4ccccc34)NC(=O)[C@@H](Cc3ccc(O)cc3)NC(=O)CCCCCNC(=O)CN3CCN(CC(=O)O)CCN(CC(=O)O)CCN(CC(=O)O)CC3)[C@@H](C)O)(C(=O)N[C@@H](Cc3ccncc3)C(N)=O)CC2)cc1 [Compound 293] ({DOTA-Ahx}-[dY][dW]NTF[azaGly]L[Api](Gly(Nα-4-MeO-benzyl))[4Pal]-NH2) / human kisspeptin receptor (Homo sapiens (Human), UniProt Q969F8), Ki recorded as < 10 nM

Record Cc1ccc(CNCC(=O)N2CCC(NC(=O)[C@H](CC(C)C)NC(=O)NNC(=O)[C@H](Cc3ccccc3)NC(=O)CN3CCC(NC(=O)CN4CCN(CC(=O)O)CCN(CC(=O)O)CCN(CC(=O)O)CC4)CC3)(C(=O)N[C@@H](Cc3c[nH]cn3)C(N)=O)CC2)cc1F [Compound 248] ({DOTA}-[X1]F[azaGly]L[Api](Gly(N-(3-F-4-Me-benzyl)))H-NH2) / human kisspeptin receptor (Homo sapiens (Human), UniProt Q969F8), Ki recorded as > 100 nM

We now examine a further compound.
Record Cc1ccc(CNCC(=O)N2CCC(NC(=O)[C@H](CC(C)C)n3cc([C@H](Cc4ccccc4)NC(=O)[C@H](N)CCCCNC(=O)CN4CCN(CC(=O)O)CCN(CC(=O)O)CCN(CC(=O)O)CC4)nn3)(C(=O)N[C@@H](Cc3c[nH]c4ccccc34)C(N)=O)CC2)cc1F / human kisspeptin receptor (Homo sapiens (Human), UniProt Q969F8), Ki recorded as > 100 nM

* * *

Target: human kisspeptin receptor (Homo sapiens (Human), UniProt Q969F8)
Assay: Human KISS1R binding assay (membrane competition binding)
Conditions: 90 min at room temperature; competition with 0.2 nM [125I]-metastin (45-54); Flp-In T-Rex 293 kisspeptin membranes; metal complexes nonradioactive Ga, In, Lu; read-out: hKiSSR Binding Ki (90 min)
Experimental: Crude membrane fractions are prepared from Flp-In T-Rex 293 (Thermo Fisher) cell line expressing the human kisspeptin receptor. The cells are grown to 85-100% confluence on standard tissue culture dishes in Dulbecco's Modified Eagles Medium (DMEM) (Corning) supplemented with 10% FBS (Gemini), 1% penicillin-streptomycin-glutamine (Gibco), 500 μg/mL hygromycin, and 15 μg/mL blastacidin. […]
Numbered stars: 1 amine (or outer) side, 2 acyl side, 3 side chain; on linkers, the order of the positions; unused ones are H or OH. Square brackets hold non-standard residues; d marks the D form. Peptide text beside a SMILES is read from it. * marks the point of attachment. DOTA = O=C(O)CN1CCN(CC(=O)O)CCN(CC(=O)*)CCN(CC(=O)O)CC1; Gly(N-(3-F-4-Me-benzyl)) = Cc1ccc(CNCC(=O)*)cc1F; Butanoyl(4-(4-MePh)) = Cc1ccc(CCCC(=O)*)cc1; Api(1-amidino) = N=C(N)N1CCC(N)(C(=O)O)CC1; Hydrocinnamoyl(4-I) = O=C(CCc1ccc(I)cc1)*; 2Nal = N[C@@H](Cc1ccc2ccccc2c1)C(=O)O; X1 = O=C(CN1CCC(N[*:1])CC1)[*:2]; 4Pal = N[C@@H](Cc1ccncc1)C(=O)O; Cha = N[C@@H](CC1CCCCC1)C(=O)O; Api = NC1(C(=O)O)CCNCC1; PEG2 = NCCOCCOCCC(=O)O; Ahx = NCCCCCC(=O)O; azaGly = NNC(=O)O
OUTCOME_MEASURE: Ki

Known Ki results, listed for orientation:
Record Cc1ccc(CNCC(=O)N2CCC(NC(=O)[C@H](CC(C)C)NC(=O)NNC(=O)[C@H](Cc3ccncc3)NC(=O)[C@@H](NC(=O)[C@H](CC(N)=O)NC(=O)CN3CCC(NC(=O)CN4CCN(CC(=O)O)CCN(CC(=O)O)CCN(CC(=O)O)CC4)CC3)[C@@H](C)O)(C(=O)N[C@@H](Cc3ccncc3)C(N)=O)CC2)cc1F [Compound 258] ({DOTA}-[X1]NT[4Pal][azaGly]L[Api](Gly(N-(3-F-4-Me-benzyl)))[4Pal]-NH2) / human kisspeptin receptor (Homo sapiens (Human), UniProt Q969F8), Ki recorded as > 100 nM

Record CC(C)C[C@H](NC(=O)[C@H](Cc1ccccc1)NC(=O)[C@H](CC(N)=O)NC(=O)[C@H](CCCNC(=N)N)NC(=O)[C@H](CC(N)=O)NC(=O)[C@@H](NC(=O)CCCCCNC(=O)CN1CCN(CC(=O)O)CCN(CC(=O)O)CCN(CC(=O)O)CC1)[C@@H](C)O)C(=O)NC1(C(=O)N[C@@H](Cc2ccccc2)C(N)=O)CCN(C(=N)N)CC1 [Compound 199] ({DOTA-Ahx}-TNRNFL[Api(1-amidino)]F-NH2) / human kisspeptin receptor (Homo sapiens (Human), UniProt Q969F8), Ki recorded as > 100 nM

Record Cc1ccc(CCCC(=O)N[C@H](Cc2ccc(O)cc2)C(=O)N[C@H](Cc2c[nH]c3ccccc23)C(=O)N[C@@H](CC(N)=O)C(=O)N[C@H](C(=O)N[C@@H](Cc2ccccc2)C(=O)NNC(=O)N[C@@H](CC(C)C)C(=O)NC2(C(=O)N[C@@H](Cc3c[nH]c4ccccc34)C(N)=O)CCN(C(=O)CNCc3ccc(C)c(F)c3)CC2)[C@@H](C)O)cc1 [Compound 403] ({Butanoyl(4-(4-MePh))}-[dY][dW]NTF[azaGly]L[Api](Gly(N-(3-F-4-Me-benzyl)))W-NH2) / human kisspeptin receptor (Homo sapiens (Human), UniProt Q969F8), Ki recorded as < 10 nM

Record CC(C)C[C@H](NC(=O)NNC(=O)[C@H](Cc1ccccc1)NC(=O)CCCCCNC(=O)[C@H](Cc1ccc2ccccc2c1)NC(=O)[C@@H](Cc1ccc(O)cc1)NC(=O)CN1CCN(CC(=O)O)CCN(CC(=O)O)CCN(CC(=O)O)CC1)C(=O)NC1(C(=O)N[C@@H](Cc2ccccc2)C(N)=O)CCN(C(=N)N)CC1 [Compound 289] ({DOTA}-[dY][2Nal][Ahx]F[azaGly]L[Api(1-amidino)]F-NH2) / human kisspeptin receptor (Homo sapiens (Human), UniProt Q969F8), Ki recorded as < 10 nM

More entries:
Record CC(C)C[C@H](NC(=O)NNC(=O)[C@H](CC1CCCCC1)NC(=O)[C@@H](NC(=O)[C@H](CC(N)=O)NC(=O)[C@H](CCCCNC(=O)CN1CCN(CC(=O)O)CCN(CC(=O)O)CCN(CC(=O)O)CC1)NC(=O)[C@@H](Cc1ccc(O)cc1)NC(=O)CCOCCOCCNC(=O)CCc1ccc(I)cc1)[C@@H](C)O)C(=O)NC1(C(=O)N[C@@H](Cc2c[nH]c3ccccc23)C(N)=O)CCN(C(=N)N)CC1 [Compound 327] ({Hydrocinnamoyl(4-I)-PEG2}-[dY]K(DOTA)NT[Cha][azaGly]L[Api(1-amidino)]W-NH2) / human kisspeptin receptor (Homo sapiens (Human), UniProt Q969F8), Ki recorded as < 10 nM
